# Test system: A549
# test-description: NCI tumour cell line growth inhibition, 48 h
Calls of active or inactive are those of the source. No stated cut-off is given here; in the data, active = GI50 up to about 1.1 µM and inactive = higher.
Labels: T for active, F for inactive

>>> qualitative_label("C[n+]1c(-c2ccc(/C=N/NC(=N)N/N=C/c3ccc(-c4cn5cc(Cl)ccc5[n+]4C)cc3)cc2)cn2cc(Cl)ccc21")
"F"
>>> qualitative_label("Sc1ncnc2c1ncn2C1CCCO1 (centres undefined)")
"F"
>>> qualitative_label("CC[C@H](O)[C@H](C)C=C1SCCCS1")
"F"
>>> qualitative_label("CNC(=O)Nc1ccccc1")
"F"
>>> qualitative_label("CCC1=C(C)/C(=C/c2[nH]c(C(Br)Br)c(CC)c2C)N=C1C(Br)Br")
"F"
>>> qualitative_label("Nc1ncnc(NC2C=C(CO)C(O)C2O)c1[N+](=O)[O-] (centres undefined)")
"F"
>>> qualitative_label("Clc1ccc(-c2ccc(-c3nn4c(CNc5ccccc5)nnc4s3)o2)c(Cl)c1")
"F"
>>> qualitative_label("CCN(CC)CCNc1ccc2nnn3c4ccc(O)cc4c(=O)c1c23")
"T"
>>> qualitative_label("CCn1c(-c2ccccc2)nc2c1C(=O)c1ccccc1C2=O")
"F"
>>> qualitative_label("Oc1ccc2c3c1OC1c4[nH]c5c(c4CC4(O)C(C2)N(CC2CC2)CC[C@]314)CC1(O)C2Cc3ccc(O)c4c3[C@@]1(CCN2CC1CC1)C5O4 (some centres undefined)")
"F"
>>> qualitative_label("Clc1ccc(C2NN=C3c4ccccc4OCC32)cc1 (centres undefined)")
"F"
>>> qualitative_label("CCOC(=O)C1S/C(=N\\c2cccc(Cl)c2C)N=C1C (centres undefined)")
"F"
>>> qualitative_label("CC(=O)N1c2ccccc2C23CCN(C)CC4C(C)OCC(C4CC2=O)C13 (centres undefined)")
"F"
>>> qualitative_label("Cc1n(Cc2ccccc2)c2c([n+]1C)C(=O)c1ccccc1C2=O")
"T"
>>> qualitative_label("CC(C)=NOC(=O)Nc1cccc2c1OCO2")
"F"
>>> qualitative_label("NC(=O)C(N)=O")
"F"
>>> qualitative_label("CCC(=O)O[C@H]1CC[C@H]2[C@@H]3CCC4=C/C(=N/OC(=O)c5cccc6cc7ccccc7nc56)CC[C@]4(C)[C@H]3CC[C@]12C")
"F"
>>> qualitative_label("COc1cccc(OCC(=N/NC(=O)c2ccncc2)/N=C/c2ccncc2)c1")
"F"
>>> qualitative_label("O=C(O)Cc1ccc(-n2nnc3c(=O)[nH][nH]c(=O)c32)cc1")
"F"
>>> qualitative_label("CC/C=C/C(=O)CC(O)(C(F)(F)F)C(F)(F)F")
"F"
>>> qualitative_label("CO/C(=N\\N=C\\c1ccccc1F)c1ccncc1")
"F"
>>> qualitative_label("CCN(CC)CCNc1ccc2nc(C)n3c4ccc(O)cc4c(=O)c1c23")
"T"
>>> qualitative_label("CC(=O)NNc1nc(C)c(C(/C=C/c2ccc([N+](=O)[O-])cc2)=N/N)s1")
"F"
>>> qualitative_label("O=c1c2cc([N+](=O)[O-])ccc2[nH]n1Cc1ccccc1Cl")
"F"
>>> qualitative_label("O=c1cc(-c2ccccc2)oc2cc(OCC(O)COc3ccc4c(=O)cc(-c5ccccc5)oc4c3)ccc12")
"F"
>>> qualitative_label("NCCCNCCCCN1CC1")
"F"
>>> qualitative_label("CC(=O)OCCOCNC(=S)N/N=C(\\C)c1cnccn1")
"F"
>>> qualitative_label("Cc1cccc(/C=N/NC(=S)NCCc2ccccn2)n1")
"F"
>>> qualitative_label("C[C@]12OC(=O)[C@]3(O)CC[C@H]4[C@@H](C[C@@H](O)[C@@]5(Cl)CC=CC(=O)[C@]45C)[C@]45OCC6C(=O)O[C@@H]1C[C@@]6(C)[C@H](C4=O)[C@@]32O5 (some centres undefined)")
"F"
